# Measurement target: T1, human serum albumin (human, UniProt P02768 25-609)
# T1 construct: bought protein, amine-coupled to a CM5 chip; also called Human SA; HSA
# Run description: SPR (Biacore 8K), albumin immobilised, 25 C, 1:1 kinetics
Readout type: Kd (nM)
Just the number in nM, nothing appended.

Some binders with recorded Kd:
INS Analog 23 (other, single-chain insulin B-L2-A-L1-VHH fusion; also called Ex. 23) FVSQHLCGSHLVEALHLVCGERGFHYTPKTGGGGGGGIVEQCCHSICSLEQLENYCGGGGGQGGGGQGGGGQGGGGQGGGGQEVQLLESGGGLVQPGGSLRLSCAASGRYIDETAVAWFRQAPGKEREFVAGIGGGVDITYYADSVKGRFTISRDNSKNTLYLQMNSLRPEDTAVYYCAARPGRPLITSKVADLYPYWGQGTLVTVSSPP    0.73
INS Analog 25 (other, single-chain insulin B-L2-A-L1-VHH fusion; also called Ex. 25) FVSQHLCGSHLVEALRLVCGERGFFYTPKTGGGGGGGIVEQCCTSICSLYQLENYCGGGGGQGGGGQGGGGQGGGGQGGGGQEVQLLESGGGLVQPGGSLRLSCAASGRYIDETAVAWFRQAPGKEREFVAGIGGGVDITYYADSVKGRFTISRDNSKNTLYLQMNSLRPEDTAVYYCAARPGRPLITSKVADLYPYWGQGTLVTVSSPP    0.32

Looking for the measured Kd of INS Analog 27 (other, single-chain insulin B-L2-A-L1-VHH fusion; also called Ex. 27) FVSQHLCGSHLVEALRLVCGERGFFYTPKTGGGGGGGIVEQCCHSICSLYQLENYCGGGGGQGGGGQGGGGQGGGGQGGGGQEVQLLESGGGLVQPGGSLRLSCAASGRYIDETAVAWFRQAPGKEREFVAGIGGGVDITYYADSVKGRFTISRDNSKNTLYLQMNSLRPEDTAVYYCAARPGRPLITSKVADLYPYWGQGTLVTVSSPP , can you help?
0.75

And the next one, INS Analog 29 (other, single-chain insulin B-L2-A-L1-VHH fusion; also called Ex. 29) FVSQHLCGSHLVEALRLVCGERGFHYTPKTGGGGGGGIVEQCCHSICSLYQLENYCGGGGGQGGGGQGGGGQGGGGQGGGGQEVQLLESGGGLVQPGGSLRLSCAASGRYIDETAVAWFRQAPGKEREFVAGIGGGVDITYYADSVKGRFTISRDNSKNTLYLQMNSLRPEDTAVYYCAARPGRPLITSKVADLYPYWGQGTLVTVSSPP ?
0.74
